Catalogue of pKd values
- assay system: CXCL2
- assay summary: BLI
pKd here: minus log base 10 of the concentration, concentration in moles per litre.

{"columns": ["binder", "quantitative readout"],
 "data": [
  ["P942_IXORI (other) NQLSGPQSSANSNEAVFCDTNCTQGTDEAWSGCRGDCFCVYVGNSTEGRCMMLSGDFDYSTPGAED", 8.19],
  ["P1086_IXORI (other) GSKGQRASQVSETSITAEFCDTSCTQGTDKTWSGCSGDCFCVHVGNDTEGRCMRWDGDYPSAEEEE", 7.47]
]}

Given item P1100_IXORI (other) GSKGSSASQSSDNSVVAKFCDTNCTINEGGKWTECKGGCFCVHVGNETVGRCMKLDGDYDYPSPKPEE , the value recorded as its pKd is 6.73
